- System: NUGC-3
- Test method notes: Growth inhibition of human NUGC3 cells at 10 uM after 48 hrs by SRB assay; values are per cent of control
- Experimental parameters: NUGC-3, 48 h
Endpoint name: growth, % of control at 10 µM (%)
One number for each entry, in %.

Could you tell me growth, % of control at 10 µM for each of these molecules? They are listed below.
1. CCCCCCCCCCCCCCCCS(=O)(=O)NCCC[N+](C)(C)CC
2. CCCCCCCCCCCCCCCCS(=O)(=O)NCCC[N+](C)(C)C
3. C=CC[N+](CC)(CC)CCN(C)S(=O)(=O)CCCCCCCCCCCCCC
4. CCCCCCCCCCCCCCS(=O)(=O)N(C)CC[N+](C)(CC)CC
5. CCCCCCCCCCCCCCS(=O)(=O)NCCC[N+](C)(C)CC
6. CCCCCCCCCCCCCCCCS(=O)(=O)N(C)CCC[N+](C)(C)C
7. CCCCCCCCCCCCCCCCS(=O)(=O)N(C)CC[N+](C)(C)CC

-34.3
-37.7
-6.4
3.1
-4.7
-40.9
4

---

- System: HCT-15
- Test method notes: Growth of human HCT15 cells at 3 uM after 48 hrs by SRB assay
- Experimental parameters: HCT-15, 48 h
Endpoint name: growth, % of control at 3 µM (%)
Give bare numbers, in %.

Past entries and their recorded results:
CCCCCCCCCCCCCCCCS(=O)(=O)N(C)CC[N+](CC)(CC)CC
50.9
CCCCCCCCCCCCCCCCS(=O)(=O)N(C)CCC[N+](C)(C)CC
30.5
CCCCCCCCCCCCCCCCS(=O)(=O)NCCC[N+](C)(C)C
22.4

Working through the 2 molecules below one at a time, give growth, % of control at 3 µM for each.
1. CCCCCCCCCCCCCCS(=O)(=O)N(C)CCC[N+](C)(C)C
2. CCCCCCCCCCCCCCCCS(=O)(=O)N(C)CCC[N+](C)(C)C

1. 29.9
2. 26.7

---

- Tested on: NCI-H23
- Test method notes: Growth inhibition of human NCI-H23 cells at 1 uM after 48 hrs by SRB assay; values are per cent of control
- Experimental parameters: NCI-H23, 48 h
For each entry below, report its growth, % of control at 1 µM value.
Answers are plain numbers, in %.

List the reported growth, % of control at 1 µM of each molecule below.
1. C=CC[N+](C)(C)CCN(C)S(=O)(=O)CCCCCCCCCCCCCC
2. CCCCCCCCCCCCCCCCS(=O)(=O)N(C)CC[N+](C)(C)CC
3. CCCCCCCCCCCCCCCCS(=O)(=O)N(C)CCC[N+](C)(C)C
4. CCCCCCCCCCCCCCS(=O)(=O)N(C)CC[N+](CC)(CC)CC

70.8
84
72.7
39.8

Give measured growth, % of control at 1 µM for every item shown.
1. CCCCCCCCCCCCCCS(=O)(=O)NCC(C)(C)C[N+](C)(C)C
2. CCCCCCCCCCCCCCS(=O)(=O)N(C)CC[N+](C)(CC)CC
3. CCCCCCCCCCCCCCS(=O)(=O)N(C)CCC[N+](C)(C)C
4. C=CC[N+](CC)(CC)CCN(C)S(=O)(=O)CCCCCCCCCCCCCCCC

1. 31.4
2. 65.4
3. 8
4. 51.3

Please go through the list and note growth, % of control at 1 µM for each molecule.
1. CCCCCCCCCCCCCCS(=O)(=O)NCC(C)(C)C[N+](C)(C)CC
2. CCCCCCCCCCCCCCCCS(=O)(=O)NCCC[N+](C)(C)C

1: 52.9; 2: 88.6

---

- Tested on: NCI-H23
- Test method notes: Growth inhibition of human NCI-H23 cells after 48 hrs by SRB assay
- Assay type: functional
- Experimental parameters: NCI-H23, 48 h
Would you kindly list GI50 for each of these compounds?
A bare number is not enough; add the unit after it.

Solved entries (count: 4):
CCCCCCCCCCCCCCCCS(=O)(=O)N(C)CC[N+](C)(CC)CC
620 nM
CCCCCCCCCCCCCCS(=O)(=O)N(C)CCC[N+](C)(C)C
210 nM
C=CC[N+](CC)(CC)CCN(C)S(=O)(=O)CCCCCCCCCCCCCC
300 nM
C=CC[N+](CC)(CC)CCN(C)S(=O)(=O)CCCCCCCCCCCCCCCC
450 nM

Please report GI50 for every entry that follows.
1. CCCCCCCCCCCCCCS(=O)(=O)N(C)CC[N+](C)(C)CC
2. CCCCCCCCCCCCCCS(=O)(=O)N(C)CCC[N+](C)(C)CC
3. CCCCCCCCCCCCCCS(=O)(=O)N(C)CC[N+](C)(CC)CC
4. CCCCCCCCCCCCCCS(=O)(=O)NCCC[N+](C)(C)CC
5. CCCCCCCCCCCCCCS(=O)(=O)NCC(C)(C)C[N+](C)(C)CC

["590 nM", "380 nM", "710 nM", "330 nM", "730 nM"]

---

- System: NUGC-3
- Test method notes: Growth inhibition of human NUGC3 cells after 48 hrs by SRB assay
- Type: functional
- Experimental parameters: NUGC-3, 48 h
Endpoint name: GI50 (nM)
One number for each entry, in nM.

The examples below pair each entry with its known result.
CCCCCCCCCCCCCCCCS(=O)(=O)N(C)CC[N+](C)(C)CC
360
C=CC[N+](CC)(CC)CCN(C)S(=O)(=O)CCCCCCCCCCCCCC
210
C=CC[N+](C)(C)CCN(C)S(=O)(=O)CCCCCCCCCCCCCC
830

Would you mind listing GI50 for each of the following molecules?
1. CCCCCCCCCCCCCCS(=O)(=O)N(C)CCC[N+](C)(C)C
2. CCCCCCCCCCCCCCCCCCOP(=O)([O-])OC1CC[N+](C)(C)CC1 [PERIFOSINE]
3. CCCCCCCCCCCCCCS(=O)(=O)N(C)CC[N+](C)(C)C
4. CCCCCCCCCCCCCCCCS(=O)(=O)N(C)CC[N+](C)(CC)CC
5. CCCCCCCCCCCCCCCCS(=O)(=O)N(C)CCC[N+](C)(C)C
6. CCCCCCCCCCCCCCCCS(=O)(=O)N(C)CC[N+](CC)(CC)CC
7. CCCCCCCCCCCCCCS(=O)(=O)N(C)CC[N+](C)(CC)CC

1: 150; 2: 540; 3: 390; 4: 390; 5: 210; 6: 220; 7: 520

---

- Test system: ACHN
- Test method notes: Growth inhibition of human ACHN cells at 3 uM after 48 hrs by SRB assay; values are per cent of control
Endpoint name: growth, % of control at 3 µM (%)
Answers are plain numbers, in %.

CCCCCCCCCCCCCCS(=O)(=O)N(C)CCC[N+](C)(C)C
37.8
CCCCCCCCCCCCCCS(=O)(=O)N(C)CCC[N+](C)(C)CC
31.4
CCCCCCCCCCCCCCS(=O)(=O)N(C)CC[N+](CC)(CC)CC
48.6
CCCCCCCCCCCCCCCCS(=O)(=O)N(C)CC[N+](C)(CC)CC
48.7

Each of the following entries comes with a recorded value; kindly state growth, % of control at 3 µM for each.
1. CCCCCCCCCCCCCCCCS(=O)(=O)NCC(C)(C)C[N+](C)(C)C
2. CCCCCCCCCCCCCCS(=O)(=O)NCCC[N+](C)(C)CC
3. CCCCCCCCCCCCCCCCS(=O)(=O)N(C)CCC[N+](C)(C)CC
4. CCCCCCCCCCCCCCS(=O)(=O)NCC(C)(C)C[N+](C)(C)C
5. C=CC[N+](CC)(CC)CCN(C)S(=O)(=O)CCCCCCCCCCCCCC
6. CCCCCCCCCCCCCCS(=O)(=O)NCC(C)(C)C[N+](C)(C)CC
7. CCCCCCCCCCCCCCCCS(=O)(=O)NCCC[N+](C)(C)CC

1: 101; 2: 42.5; 3: 35.6; 4: 57.1; 5: 46.6; 6: 60.6; 7: 48.4

---

- System: HCT-15
- Test method notes: Growth inhibition of human HCT15 cells at 10 uM after 48 hrs by SRB assay; values are per cent of control
- Experimental parameters: HCT-15, 48 h
Mark MET for growth, % of control at 10 µM under 20%, NOT MET if at or over.

Field: example entries. Status: answers known.
CCCCCCCCCCCCCCS(=O)(=O)NCC(C)(C)C[N+](C)(C)C
MET
CCCCCCCCCCCCCCS(=O)(=O)N(C)CCC[N+](C)(C)CC
NOT MET
CCCCCCCCCCCCCCS(=O)(=O)N(C)CC[N+](C)(C)CC
NOT MET
CCCCCCCCCCCCCCCCS(=O)(=O)N(C)CCC[N+](C)(C)C
MET
CCCCCCCCCCCCCCS(=O)(=O)N(C)CC[N+](C)(CC)CC
NOT MET

Does C=CC[N+](CC)(CC)CCN(C)S(=O)(=O)CCCCCCCCCCCCCC have growth, % of control at 10 µM strictly under 20%?
MET

Decide: growth, % of control at 10 µM of CCCCCCCCCCCCCCCCS(=O)(=O)N(C)CC[N+](CC)(CC)CC strictly below 20%?
NOT MET
